# Assay target: γ-secretase complex (Homo sapiens, UniProt P49768)
# Assay details: APP-C99 counter assay (GSI reporter assay)
# Format: cell-based
# Measurement context: 24 h; 1,25µM; APP-C99 counter assay; read-out: 3p-DR in % of DMSO counter
Measured endpoint: remaining activity at […] (%)

Compound	remaining activity at […] (%)
COc1ccc(C(=O)N2Cc3nc[nH]c3C[C@H]2c2nc(-c3ccc(OC)cc3)no2)cc1	112
COc1cc(Nc2nc(-c3cccc(NC(C)=O)c3)cn3ccnc23)cc(OC)c1OC	132
CC(=O)Oc1cccc(N2C(=O)c3ccc(Oc4cccc(N)c4)cc3C2=O)c1	124

1. Cc1ccc(-c2noc([C@@H]3Cc4[nH]cnc4CN3C(=O)CCC(=O)O)n2)cc1
2. NC(=O)c1c(NC(=O)NCc2cccnc2)sc2c1CCC2
Lab log: flag the item ( 1 or 2 ) with the smaller remaining activity at […] figure. Your answer should be the label attached to the chosen record.
2
(2: 78%, 1: 119%)
